measured.on: α-glucosidase (Saccharomyces cerevisiae)
Construct: purchased Sigma-Aldrich, Munich, Germany
test.method.notes: biochemical
Format: biochemical
setup.conditions: read-out: Inhibitions (%)
Procedure: In vitro analysis of all the synthesized compounds was performed in order to justify the validity of in silico outcomes. Results were found in good agreement with the in silico study. […] The experiment was repeated thrice and inhibition percentages were calculated using the following formula. % Inhibition = [(A control − A sample) / A control] × 100(1) where ‘A’ stands for absorbance.
Please respond with reported inhibition at 200 µM for every item in the list.

For the 4 compounds below, give their inhibition at 200 µM values.
1. Cc1cccc(NC(=O)CN2C(C(=O)c3ccccc3)=C(O)c3ccccc3S2(=O)=O)c1 [Compound 11e]
2. O=C(CN1C(C(=O)c2ccccc2)=C(O)c2ccccc2S1(=O)=O)Nc1cccc([N+](=O)[O-])c1 [Compound 11h]
3. O=C(CN1C(C(=O)c2ccc(Br)cc2)=C(O)c2ccccc2S1(=O)=O)Nc1ccc(Cl)cc1 [Compound 12c]
4. O=C(CN1C(C(=O)c2ccc(Br)cc2)=C(O)c2ccccc2S1(=O)=O)Nc1ccc(Br)cc1 [Compound 12k]

RESULT:
1. 15%
2. 63%
3. 61%
4. 48%

---

measured.on: α-glucosidase (Saccharomyces cerevisiae, UniProt P53341)
Construct: purchased Sigma-Aldrich, Munich, Germany
Sequence (P53341 whole entry): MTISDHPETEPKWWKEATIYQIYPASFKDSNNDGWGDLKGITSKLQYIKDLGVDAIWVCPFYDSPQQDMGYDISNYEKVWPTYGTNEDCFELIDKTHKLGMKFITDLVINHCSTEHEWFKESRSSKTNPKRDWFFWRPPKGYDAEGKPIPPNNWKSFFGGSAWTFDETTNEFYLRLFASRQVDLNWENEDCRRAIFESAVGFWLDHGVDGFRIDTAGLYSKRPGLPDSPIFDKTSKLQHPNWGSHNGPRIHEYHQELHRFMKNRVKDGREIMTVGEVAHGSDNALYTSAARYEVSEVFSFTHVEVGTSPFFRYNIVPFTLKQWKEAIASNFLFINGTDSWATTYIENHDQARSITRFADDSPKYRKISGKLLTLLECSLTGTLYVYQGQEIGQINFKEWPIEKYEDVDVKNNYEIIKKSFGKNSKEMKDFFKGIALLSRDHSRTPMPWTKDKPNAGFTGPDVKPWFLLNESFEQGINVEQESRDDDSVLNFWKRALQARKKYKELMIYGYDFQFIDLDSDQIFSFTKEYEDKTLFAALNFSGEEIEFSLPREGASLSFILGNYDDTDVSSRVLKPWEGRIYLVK
test.method.notes: biochemical
Type: biochemical
setup.conditions: read-out: Inhibitions (%)
I'd appreciate it if you could supply inhibition at 200 µM values for the items below.
Answers are plain numbers, in %.

Completed entries (count: 5):
{"compound": "O=C(CN1C(C(=O)c2ccc(Br)cc2)=C(O)c2ccccc2S1(=O)=O)Nc1cccc([N+](=O)[O-])c1 [Compound 12h]", "measured.on": "α-glucosidase (Saccharomyces cerevisiae, UniProt P53341)", "inhibition at 200 µM / %": 58}
{"compound": "O=C(CN1C(C(=O)c2ccc(Br)cc2)=C(O)c2ccccc2S1(=O)=O)Nc1ccc([N+](=O)[O-])cc1 [Compound 12i]", "measured.on": "α-glucosidase (Saccharomyces cerevisiae, UniProt P53341)", "inhibition at 200 µM / %": 33}
{"compound": "O=C(CN1C(C(=O)c2ccc(Br)cc2)=C(O)c2ccccc2S1(=O)=O)Nc1cccc(Br)c1 [Compound 12j]", "measured.on": "α-glucosidase (Saccharomyces cerevisiae, UniProt P53341)", "inhibition at 200 µM / %": 12}
{"compound": "Cc1ccc(NC(=O)CN2C(C(=O)c3ccc(Br)cc3)=C(O)c3ccccc3S2(=O)=O)cc1 [Compound 12f]", "measured.on": "α-glucosidase (Saccharomyces cerevisiae, UniProt P53341)", "inhibition at 200 µM / %": 20}
{"compound": "COc1ccccc1NC(=O)CN1C(C(=O)c2ccc(Br)cc2)=C(O)c2ccccc2S1(=O)=O [Compound 12l]", "measured.on": "α-glucosidase (Saccharomyces cerevisiae, UniProt P53341)", "inhibition at 200 µM / %": 34}

Return reported inhibition at 200 µM values for all items listed beneath this line.
1. Cc1ccc(NC(=O)CN2C(C(=O)c3ccccc3)=C(O)c3ccccc3S2(=O)=O)cc1 [Compound 11f]
2. O=C(CN1C(C(=O)c2ccc(Br)cc2)=C(O)c2ccccc2S1(=O)=O)Nc1ccccc1Cl [Compound 12a]

RESULT:
[37, 79]

Sourced from paper PMC8161055
